Test system: B16F10
Experiment: SRB (sulforhodamine B) cell proliferation assay
Format: cell-based, murine
Conditions: Mus musculus, B16-F10; B16F10 (Example 11); read-out: IC50 (SRB Test-72 h)
measure.name: pIC50
pIC50 is defined as minus the log10 of a concentration measured in mol/L.

**Q:** Please supply the value of reported pIC50 for the item Cc1c2cc[n+](CCN3CCCCC3)cc2c(C)c2c1[nH]c1ccc(O)cc12 [Bimesylate]
**A:** 5.74
